# Tested on: A/PuertoRico/8/1934 (H1N1) virus
# ASSAY OVERVIEW: microbe, parasite or virus in culture
# Format: cell-based, influenza A virus
# CONDITION NOTES: Influenza A virus, H1N1, U-937, 48 h; read-out: NA Inhibition (%)
Where a name gives a salt, the structure may show the parent alone.
# binarize inhibition at 20 µM: threshold 50% inclusive, high side Criterion met, low side Criterion not met

Please check the record `CN1[C@@H]2CC[C@H]1C[C@@H](OC(=O)c1c[nH]c3ccccc13)C2` and state if its inhibition at 20 µM is at or above 50%.
Criterion met

Please check the record CCN(C)C(=O)Oc1cccc([C@H](C)N(C)C)c1 [Rivastigmine Tartrate] and state if its inhibition at 20 µM is at or above 50%.
Criterion not met

Please check the record `CNC(=C[N+](=O)[O-])NCCSCc1ccc(CN(C)C)o1` and state if its inhibition at 20 µM is at or above 50%.
Criterion not met

Please check the record c1ccc2c(CC3=NCCN3)cccc2c1 [Naphazoline HCl] and state if its inhibition at 20 µM is at or above 50%.
Criterion not met

Please check the record CCc1cc2c(cc1CC)CC(NC[C@H](O)c1ccc(O)c3[nH]c(=O)ccc13)C2 [Indacaterol Maleate] and state if its inhibition at 20 µM is at or above 50%.
Criterion not met

Please check the record Cc1nc2n(c(=O)c1CCN1CCC(c3noc4cc(F)ccc34)CC1)CCCC2O (stereo not shown) and state if its inhibition at 20 µM is at or above 50%.
Criterion not met

Please check the record CN(C)C(=O)Oc1ccc[n+](C)c1 [Pyridostigmine Bromide] and state if its inhibition at 20 µM is at or above 50%.
Criterion not met

Please check the record `N#Cc1ccccc1-c1cc(-c2ccccn2)cn(-c2ccccc2)c1=O` and state if its inhibition at 20 µM is at or above 50%.
Criterion not met

Please check the record O=C(C[S+]([O-])Cc1ccco1)NC/C=C\COc1cc(CN2CCCCC2)ccn1 (stereo not shown) and state if its inhibition at 20 µM is at or above 50%.
Criterion met

Please check the record OC(CNCC(O)C1CCc2cc(F)ccc2O1)C1CCc2cc(F)ccc2O1 (stereo not shown) and state if its inhibition at 20 µM is at or above 50%.
Criterion met

Please check the record CN(C)CC/C=C1/c2ccccc2COc2ccc(CC(=O)O)cc21 [Olopatadine HCl] and state if its inhibition at 20 µM is at or above 50%.
Criterion not met

Please check the record CC(COc1ccccc1)N(CCCl)Cc1ccccc1 (stereo not shown) [Phenoxybenzamine HCl] and state if its inhibition at 20 µM is at or above 50%.
Criterion met

Please check the record CN1CCN2c3ccccc3Cc3ccccc3C2C1 (stereo not shown) [Mianserin HCl] and state if its inhibition at 20 µM is at or above 50%.
Criterion not met

Values from paper PMC12069340
